# measured_target: Serotonin 5-HT1B receptor (Homo sapiens)
# Sequence (P28222 whole entry): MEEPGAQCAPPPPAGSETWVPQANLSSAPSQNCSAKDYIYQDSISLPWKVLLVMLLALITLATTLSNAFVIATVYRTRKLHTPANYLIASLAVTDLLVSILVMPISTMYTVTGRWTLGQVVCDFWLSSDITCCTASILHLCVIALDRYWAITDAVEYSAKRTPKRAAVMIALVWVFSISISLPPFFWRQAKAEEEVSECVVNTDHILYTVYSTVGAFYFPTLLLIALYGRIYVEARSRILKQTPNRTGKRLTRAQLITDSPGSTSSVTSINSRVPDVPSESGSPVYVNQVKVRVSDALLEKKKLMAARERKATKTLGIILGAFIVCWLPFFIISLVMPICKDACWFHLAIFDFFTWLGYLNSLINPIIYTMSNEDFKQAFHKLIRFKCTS
# protocol_details: GTPγS Scintillation Proximity Assay, agonist and antagonist mode
# Format: biochemical
# experimental_conditions: Antagonist Activity (IC50), 5-HT1B, membrane extracts, vs reference agonist at EC80
Please go through the items and note down their IC50.

compound_smiles	test_result
CCN(CC)C(=O)N[C@H]1C[C@@H]2c3cccc4[nH]c(C(F)(F)F)c(c34)C[C@H]2N(C)C1	110 nM

Shift focus to the following entry.
Q. Determine reported IC50 for CCN(CC)C(=O)N[C@H]1C[C@@H]2c3cccc4[nH]c(Br)c(c34)C[C@H]2N(C)C1 ; test system: Serotonin 5-HT1B receptor (Homo sapiens).
A. 410 nM

----------
# measured_target: Serotonin 5-HT7 receptor (Homo sapiens)
# Construct: expressed in transfected cells; host or cells: CHO-K1
# Sequence (P34969 whole entry): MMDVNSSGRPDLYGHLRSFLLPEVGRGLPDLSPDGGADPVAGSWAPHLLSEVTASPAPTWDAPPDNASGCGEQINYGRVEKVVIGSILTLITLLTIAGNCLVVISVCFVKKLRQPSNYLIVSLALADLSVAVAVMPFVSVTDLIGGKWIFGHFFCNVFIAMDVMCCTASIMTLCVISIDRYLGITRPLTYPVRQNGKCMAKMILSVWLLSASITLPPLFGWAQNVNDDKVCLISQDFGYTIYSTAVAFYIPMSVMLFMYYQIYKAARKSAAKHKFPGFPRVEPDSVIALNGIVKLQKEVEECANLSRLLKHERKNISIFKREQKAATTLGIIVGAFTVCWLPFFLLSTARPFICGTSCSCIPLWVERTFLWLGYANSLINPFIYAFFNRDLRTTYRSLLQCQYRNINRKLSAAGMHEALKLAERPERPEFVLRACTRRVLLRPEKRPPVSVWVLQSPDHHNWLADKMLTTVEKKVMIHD
# protocol_details: cAMP HTRF Assay for Gs Coupled Receptors, agonist and antagonist mode
# Type: cell-based
# experimental_conditions: CHO-K1 cells, vs reference agonist at EC80; read-out: Antagonist Activity (IC50), 5-HT7
property_label: IC50 (nM)
Give bare numbers, in nM.

Q. Determine reported IC50 for CCN(CC(F)(F)F)C(=O)N[C@H]1C[C@@H]2c3cccc4[nH]c(C(F)(F)F)c(c34)C[C@H]2N(C)C1 [Compound A16H] ; test system: Serotonin 5-HT7 receptor (Homo sapiens).
A. 380

----------
# measured_target: Serotonin 5-HT1F receptor (Homo sapiens)
# Sequence (P30939 whole entry): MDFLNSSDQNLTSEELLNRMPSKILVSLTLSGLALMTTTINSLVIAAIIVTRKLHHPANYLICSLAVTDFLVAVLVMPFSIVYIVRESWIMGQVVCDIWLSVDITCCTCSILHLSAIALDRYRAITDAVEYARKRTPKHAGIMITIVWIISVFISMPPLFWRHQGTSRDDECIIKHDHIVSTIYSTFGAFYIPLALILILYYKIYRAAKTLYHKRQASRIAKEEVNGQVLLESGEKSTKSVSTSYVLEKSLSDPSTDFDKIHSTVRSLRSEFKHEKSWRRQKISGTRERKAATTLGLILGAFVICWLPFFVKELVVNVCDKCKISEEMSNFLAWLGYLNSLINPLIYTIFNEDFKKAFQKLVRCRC
# protocol_details: GTPγS Scintillation Proximity Assay, agonist and antagonist mode
# Assay type: biochemical
# experimental_conditions: agonist mode, bound stated; read-out: EC50 value for the Serotonin 5-HT1F receptor
property_label: EC50

Q. Determine reported EC50 for CC[C@@H](CO)NC(=O)[C@@H]1C[C@@H]2c3cccc4c3c(c(C3CC3)n4C)C[C@H]2N(C)C1 [Compound D13H] ; test system: Serotonin 5-HT1F receptor (Homo sapiens).
A. < 1000 nM

----------
# measured_target: UniProt P34969
# protocol_details: cAMP HTRF Assay for Gs Coupled Receptors, agonist and antagonist mode
property_label: pEC50
One number for each entry, as −log10 of the molar value.

Q. Determine reported pEC50 for CC[C@@H](CO)NC(=O)[C@@H]1C[C@@H]2c3cccc4c3c(c(C3CC3)n4C)C[C@H]2N(C)C1 [Compound D13H] ; test system: UniProt P34969.
A. 7.40

----------
# measured_target: Dopamine D2L receptor (Homo sapiens, UniProt P14416)
# Sequence (P14416 whole entry): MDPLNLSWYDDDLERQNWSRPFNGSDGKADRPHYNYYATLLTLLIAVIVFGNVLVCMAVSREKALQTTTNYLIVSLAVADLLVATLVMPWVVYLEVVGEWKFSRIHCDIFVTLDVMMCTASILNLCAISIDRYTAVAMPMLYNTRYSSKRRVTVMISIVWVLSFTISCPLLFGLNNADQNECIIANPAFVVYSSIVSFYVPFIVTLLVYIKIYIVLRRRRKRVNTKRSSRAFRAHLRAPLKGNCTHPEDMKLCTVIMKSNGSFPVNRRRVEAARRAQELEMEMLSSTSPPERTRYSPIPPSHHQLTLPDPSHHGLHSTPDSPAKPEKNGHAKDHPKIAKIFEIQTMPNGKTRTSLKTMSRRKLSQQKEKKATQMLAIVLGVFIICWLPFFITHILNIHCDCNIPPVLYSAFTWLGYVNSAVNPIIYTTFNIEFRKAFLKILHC
# protocol_details: GTPγS Scintillation Proximity Assay, agonist and antagonist mode
# Assay type: biochemical
# experimental_conditions: EC50 value for the Dopamine D2L receptor, agonist mode, bound stated
pEC50: −log10 of the molar value.
Please go through the items and note down their pEC50.

compound	pEC50
CCN(CC)C(=O)N[C@H]1C[C@@H]2c3cccc4[nH]c(Br)c(c34)C[C@H]2N(C)C1 [Compound A8H]	> 6.00

For every listed record, write down its pEC50.
1. CCN(CC)C(=O)N[C@H]1C[C@@H]2c3cccc4[nH]c(C(F)(F)F)c(c34)C[C@H]2N(C)C1 [Compound A9H]
2. CC[C@@H](CO)NC(=O)[C@@H]1C[C@@H]2c3cccc4c3c(c(C3CC3)n4C)C[C@H]2N(C)C1 [Compound D13H]

A.
1. > 6.00
2. > 6.00

----------
# measured_target: Serotonin 5-HT1B receptor (Homo sapiens)
# protocol_details: GTPγS Scintillation Proximity Assay, agonist and antagonist mode
# Type: biochemical
# experimental_conditions: membrane extracts, vs reference agonist at EC80; read-out: Antagonist Activity (IC50), 5-HT1B
property_label: IC50 (nM)
Give bare numbers, in nM.

Q. Let me know recorded IC50 for CCN(CC(F)(F)F)C(=O)N[C@H]1C[C@@H]2c3cccc4[nH]c(C(F)(F)F)c(c34)C[C@H]2N(C)C1 [Compound A16H] , thanks.
A. 340
